Test system: Bacillus subtilis
assay method text: Antimicrobial activity against Bacillus subtilis after 48 hrs by agar plate dilution method
Assay type: functional
Kindly state MIC for each of the entries shown.
Answers are plain numbers, in µg/mL.

Here is how some compounds turned out for MIC.
{"columns": ["compound", "MIC, µg/mL"],
 "data": [
  ["CC(C)=CCc1c(O)cc(O)c2c1O[C@H](c1ccc(O)cc1O)CC2=O", 2.5],
  ["COc1cc([C@@H]2CC(=O)c3c(cc(O)c(CC=C(C)C)c3O)O2)c(O)cc1O", 10]
]}

I'm hoping you can list MIC for every compound here, please.
1. CC(C)=CCc1c(O)cc(O)c2c1O[C@H](c1ccccc1O)CC2=O
2. C=C(C)C(CC=C(C)C)Cc1c(O)cc(O)c2c1O[C@H](c1ccccc1O)CC2=O (some centres not stated)
3. COc1cc(C2CC(=O)c3c(O)cc(O)c(CC=C(C)C)c3O2)c(O)cc1O (racemic)
4. C=C(C)C(CC=C(C)C)Cc1c(O)cc(OC)c2c1O[C@H](c1ccccc1O)CC2=O (some centres not stated)

1. 5
2. 2.5
3. 10
4. 2.5

====

assay method text: Displacement of [3H]DHT from 5-alpha-dihydrotestosterone receptor at 50 ug/mL
Label met for high-side Activity (at or above 50%) and not met for low-side Activity (below it).

Example entries and their recorded answers appear below.
{"columns": ["compound", "cat"],
 "data": [
  ["C=C(C)C(CC=C(C)C)Cc1c(O)cc(OC)c2c1O[C@H](c1ccc(O)cc1O)[C@@H](O)C2=O (stereo not given in full)", "met"],
  ["C=C(C)[C@H](CCC(C)(C)O)Cc1c(O)cc(O)c2c1O[C@H](c1ccccc1O)CC2=O", "not met"],
  ["CC(C)=CCC(Cc1c(O)cc(O)c2c1O[C@H](c1ccc(O)cc1O)CC2=O)C(C)CO (stereo not given in full)", "met"]
]}

Answer whether Activity of C=C(C)C(CC=C(C)C)Cc1c(O)cc(O)c2c1O[C@H](c1ccc(O)cc1O)CC2=O (stereo not given in full) is greater than or equal to 50%. met

Please indicate if the recorded Activity for C=C(C)C(CC=C(C)C)Cc1c(O)cc(OC)c2c1O[C@H](c1ccc(O)cc1)CC2=O (stereo not given in full) meets or exceeds 50%. met

====

Would you kindly list inhibition for each of these molecules?
assay method text: Inhibition of testosterone-5-alpha-reductase at 50 ug/mL
Answers are plain numbers, in %.

Previously resolved entries follow.
{"columns": ["molecule", "inhibition / %"],
 "data": [
  ["CC(C)=CCc1c(O)cc(O)c2c1O[C@H](c1ccccc1O)CC2=O", 7.3],
  ["C=C(C)C(CC=C(C)C)Cc1c(O)cc(OC)c2c1O[C@H](c1ccc(O)cc1OC)CC2=O (some centres undefined)", 34.1]
]}

Give measured inhibition for every item shown.
1. C=C(C)C(CC=C(C)C)Cc1c(O)cc(OC)c2c1O[C@H](c1ccc(O)cc1O)CC2=O (some centres undefined)
2. C=C(C)C(CC=C(C)C)Cc1c(O)cc(O)c2c1O[C@H](c1ccc(O)cc1O)[C@@H](O)C2=O (some centres undefined)

1: 0.7; 2: 30.9

====

assay method text: Inhibition of testosterone-5-alpha-reductase at 200 ug/mL
experimental readout: inhibition (%)
Answers are plain numbers, in %.

Please review the entries below; each comes with its answer.
{"columns": ["molecule", "recorded result"],
 "data": [
  ["CC(C)=CCC(Cc1c(O)cc(O)c2c1O[C@H](c1ccc(O)cc1O)CC2=O)C(C)CO (stereo partly drawn)", 88.5],
  ["C=C(C)[C@H](CCC(C)(C)O)Cc1c(O)cc(O)c2c1O[C@H](c1ccccc1O)CC2=O", 95.4]
]}

Could you now consider this next molecule?
Consider the molecule shown here: C=C(C)C(CCC(C)(C)O)Cc1c(O)cc(OC)c2c1O[C@H](c1ccc(O)cc1O)CC2=O (stereo partly drawn) What is its recorded inhibition? 11.9

Where do the numbers come from? From ChEMBL document CHEMBL1144146.
